system: Bacillus subtilis; assay: cleaved RNA product abundance (RNA/gDNA barcode ratio) relative to median wild-type variant (ratio to wild type); higher = more accumulation of the downstream cleavage product; details: experiment (reporter, strain, medium): exp 4a: truncated aprE reporter, strain BJT201 with 2% xylose (RNase J1 expressed); cleavage site: cggR-gapA (positions -7 to +36 mutated)
# cleaved RNA product abundance annotations

primary.sequence	cleaved RNA product abundance
ACAGACGAAGGAGCCGCCAAGAAGTTATTAAGGGATGAATAATCCATCAATATAAATATCTCTCACTTATTTAAA	0.327
ACAGACGAAGGAGCCGCAAAGAAGTTATTAAGTGATGAATAATCCCTCAATATACATATCTCTCACTTATTTAAA	0.19
ACAGACGAAGGAGCCGCAAAGAAGTTATTTAGGGATGAATCATCCCTCAATATAAATATCTCTCACTTATTTAAA	0.542
ACAGACGAAGGAGCCGCAGACAAGTTATTAAGGGATGAATAATCCCTCAATATAAATATCTCTCACTTATTTAAA	0.844
ACAGACGAAGGAGCCGCAAAGAAGTTATTACGGTATGAATAATCCCTCAATATAAATATCTCTCACTTATTTAAA	0.141
ACAGACGAAGGAGCCGCAAAGAAGTTATTAAGGGATGAAAAATCCTTCAATATAAATATCTCTCACTTATTTAAA	0.505
ACAGACGAAGGAGCCGCAAAGTAGTTATTAAGGGATGAATAATCCCTCAATATAATTATCTCTCACTTATTTAAA	0.437
